Protocol details: AUClast in BALB/c mouse at 1 mg/kg, iv measured upto 24 hrs by LC/MS-MS analysis
Type: ADME, organism-based
Design: time < 24 hr, dose 1 mg/kg, route intravenous
Condition info: in vivo
We begin with a simple list: items and their reported AUC(0-t) at 24 h.
Assay metric: AUC(0-t) at 24 h (µM·h)

# Given smiles, Assay metric, Recorded value
records = [
    ("Cn1nccc1-c1cc(C(F)(F)F)ccc1[C@H]1CCc2cc(S(=O)(=O)Nc3ncccn3)ccc21", "AUC(0-t) at 24 h", 8.5),
    ("O=S(=O)(Nc1nccs1)c1ccc2c(c1)OCC[C@@H]2c1ccc(C(F)(F)F)cc1-c1ccc(F)nc1", "AUC(0-t) at 24 h", 2),
    ("O=S(=O)(Nc1ncccn1)c1ccc2c(c1)OCC[C@@H]2c1ccc(C(F)(F)F)cc1-c1ccc(F)nc1", "AUC(0-t) at 24 h", 12),
    ("Cc1ccc(-c2cc(C(F)(F)F)ccc2[C@H]2CCOc3cc(S(=O)(=O)Nc4ncccn4)ccc32)cn1", "AUC(0-t) at 24 h", 7.6),
    ("O=S(=O)(Nc1nccs1)c1ccc2c(c1)OCC[C@@H]2c1ccc(C(F)(F)F)cc1-n1ccnn1", "AUC(0-t) at 24 h", 0.9),
    ("O=S(=O)(Nc1ncccn1)c1ccc2c(c1)OCC[C@@H]2c1ccc(C(F)(F)F)cc1N1CCOCC1", "AUC(0-t) at 24 h", 12),
    ("Cn1nccc1-c1cc(C(F)(F)F)ccc1[C@H]1CCOc2cc(S(=O)(=O)Nc3nccs3)ccc21", "AUC(0-t) at 24 h", 2.2),
    ("Cn1nccc1-c1cc(C(F)(F)F)ccc1[C@H]1CCOc2cc(S(=O)(=O)Nc3ncccn3)ccc21", "AUC(0-t) at 24 h", 12),
]

====

Protocol details: AUClast in Beagle dog at 1 mg/kg, iv administered as infusion for 15 mins by LC/MS-MS analysis
Format: ADME, organism-based, Canis lupus familiaris
Design: dose 1 mg/kg, time 0 - last, route intravenous
Condition info: in vivo
Assay metric: AUC(0-t) at 0.25 h (µM·h)

# Given smiles, Recorded value
rows = [
    ("Cn1nccc1-c1cc(C(F)(F)F)ccc1[C@H]1CCOc2cc(S(=O)(=O)Nc3ncccn3)ccc21", 59),
    ("O=S(=O)(Nc1ncccn1)c1ccc2c(c1)OCC[C@@H]2c1ccc(C(F)(F)F)cc1N1CCOCC1", 48),
    ("Cc1ccc(-c2cc(C(F)(F)F)ccc2[C@H]2CCOc3cc(S(=O)(=O)Nc4ncccn4)ccc32)cn1", 19),
    ("O=S(=O)(Nc1ncccn1)c1ccc2c(c1)OCC[C@@H]2c1ccc(C(F)(F)F)cc1-c1ccc(F)nc1", 70),
]

====

We begin with a simple list: items and their reported AUC(0-t).
Protocol details: AUClast in Beagle dog at 1 mg/kg, iv administered as infusion for 15 mins followed by compound washout and subsequent compound dosing at 5 mg/kg, po measured up to 24 hrs by LC/MS-MS analysis
Assay type: ADME, organism-based, Canis lupus familiaris
Condition info: in vivo

# Given smiles, AUC(0-t)
rows = [
    ("Cn1nccc1-c1cc(C(F)(F)F)ccc1[C@H]1CCOc2cc(S(=O)(=O)Nc3ncccn3)ccc21", "117 µM·h"),
    ("Cc1ccc(-c2cc(C(F)(F)F)ccc2[C@H]2CCOc3cc(S(=O)(=O)Nc4ncccn4)ccc32)cn1", "50 µM·h"),
    ("O=S(=O)(Nc1ncccn1)c1ccc2c(c1)OCC[C@@H]2c1ccc(C(F)(F)F)cc1-c1ccc(F)nc1", "218 µM·h"),
]
